Recorded values, source patent US9296734B2.

Test system: Aβ40 in conditioned medium of cells stably expressing Amyloid Precursor Protein (APP)
measurement.notes: In vitro BACE cell-based assay (Aβ40 sandwich ELISA)
condition.context: Homo sapiens, HEK293, average IC50, HEK cell assay; read-out: HEK cell assay IC50
Method: In Vitro BACE Cell-Based Assay The cell-based assay measures inhibition or reduction of Aβ40 in conditioned medium of test compound treated cells expressing amyloid precursor protein. Cells stably expressing Amyloid Precursor Protein (APP) were plated at a density of 40K cells/well in 96 well plates (Costar). […] After 24 h of incubation with the test compounds the supernatant conditioned media was collected and the Aβ 40 levels were determined using a sandwich ELISA. […]
pIC50: −log10 of the molar value.
test.readout: pIC50

>>> df
                              sample_smiles  test_readout  experimental_value
0  NC1=N[C@](CF)(c2cc(Nc3ncc(F)c4cc(C#CC5CC5)cnc34)ccc2F)C[C@@H](C(F)(F)F)O1         pIC50                5.63

[a] COc1cnc(C(=O)Nc2cc(F)c(F)c([C@]3(CF)C[C@@H](C(F)(F)F)OC(N)=N3)c2)cn1
[b] C[C@@]1(c2cc(NC(=O)c3ccc(F)cn3)cnc2F)C[C@@H](C(F)(F)F)OC(N)=N1
[c] COc1cnc(C(=O)Nc2cc(F)c(F)c([C@]3(C)C[C@@H](C(F)(F)F)OC(N)=N3)c2)c(Cl)c1
[d] NC1=N[C@](CF)(c2cc(Nc3nccc4cc(Cl)cnc34)cc(F)c2F)C[C@@H](C(F)(F)F)O1
Rank the items in ascending order with respect to pIC50. The labels, placed in the requested order, form the answer.
d, a, b, c

* * *

Test system: Aβ40 in conditioned medium of cells stably expressing Amyloid Precursor Protein (APP)
measurement.notes: In vitro BACE cell-based assay (Aβ40 sandwich ELISA)
condition.context: Homo sapiens, HEK293, HEK cells; average; read-out: HEK cell assay IC50
test.readout: IC50 (nM)

Worked set:
In [3]: df
Out[3]:
                              sample_smiles  unit_spec  experimental_value
0  C[C@@]1(c2cc(NC(=O)c3cnc(C(F)F)cn3)cc(F)c2F)C[C@@H](C(F)(F)F)OC(N)=N1         nM                  18
1  COc1cnc(C(=O)Nc2cc(C)c(F)c([C@]3(CF)C[C@@H](C(F)(F)F)OC(N)=N3)c2)cn1         nM                  23
2  Cc1cc(NC(=O)c2ccc(Cl)cn2)cc([C@]2(CF)C[C@@H](C(F)(F)F)OC(N)=N2)c1F         nM                   7
3  COc1cccnc1Nc1cc(F)c(F)c([C@]2(C)C[C@@H](C(F)(F)F)OC(N)=N2)c1         nM                 162
4  C[C@@]1(c2cc(NC(=O)c3ccc(C#N)cn3)cc(Cl)c2F)C[C@@H](C(F)(F)F)OC(N)=N1         nM                  12

[P] C[C@@]1(c2cc(NC(=O)c3ncc(C#N)cc3F)cc(F)c2F)C[C@@H](C(F)(F)F)OC(N)=N1
[Q] C[C@@]1(c2cc(NC(=O)c3ccc(Br)cn3)cc(F)c2F)C[C@@H](C(F)(F)F)OC(N)=N1
Between the entries labelled P and Q , which has a larger IC50 value on record? Refer to your chosen item by its label in the answer.
P

[A] C#CCOc1cnc(C(=O)Nc2cc(F)c(F)c([C@]3(C)C[C@@H](C(F)(F)F)OC(N)=N3)c2)cn1
[B] C[C@@]1(c2cc(NC(=O)c3cnc(OCC(F)(F)F)cn3)cc(F)c2F)C[C@@H](C(F)(F)F)OC(N)=N1
Identify the entry with the smaller IC50: A or B . Refer to your chosen item by its label in the answer.
A

[1] C[C@@]1(c2cc(NC(=O)c3ncc(C(F)(F)F)cc3Cl)cc(F)c2F)C[C@@H](C(F)(F)F)OC(N)=N1
[2] COc1cnc(C(=O)Nc2cc(C)c(F)c([C@]3(CF)C[C@@H](C(F)(F)F)OC(N)=N3)c2)c(C)c1
[3] C#CCOc1cnc(C(=O)Nc2cc(C)c(F)c([C@]3(CF)C[C@@H](C(F)(F)F)OC(N)=N3)c2)cn1
[4] C[C@@]1(c2cc(NC(=O)c3nn(C(F)F)cc3Cl)cc(F)c2F)C[C@@H](C(F)(F)F)OC(N)=N1
Rank the items in ascending order with respect to IC50. The labels, placed in the requested order, form the answer.
3, 4, 1, 2
